Target: Breakpoint cluster region protein (Homo sapiens)
Assay: breakpoint cluster region GTPase-activating protein domain inhibitors, dose-response, specificity counterscreen for MgcRacGAP inhibitor project, cell-free, Rac1 GTPase, Biomol Green phosphate readout (AID 652149)
Settings: BCR GAP/Rac1 GTPase, Biomol green phosphate absorbance
experimental endpoint: pIC50
Schema: pIC50 number; meaning minus log10 of the concentration expressed in molar units.

Field: example entries. Status: answers known.
[
  {
    "compound": "O=c1c2cc(F)ccc2sn1-c1ccccc1",
    "observed": 5.13
  },
  {
    "compound": "O=c1c2ccc(F)cc2sn1-c1ccccc1",
    "observed": 5.04
  },
  {
    "compound": "CC1=NNC(=O)C1Br (stereo not given)",
    "observed": 4.87
  },
  {
    "compound": "O=C(O)c1cccc(-n2sc3ccccc3c2=O)c1",
    "observed": 5.02
  }
]

Next:
# input Consider the compound "Cc1ccc(C)c(-n2sc3ccc(F)cc3c2=O)c1" and give its measured pIC50.
# output 5.14
